Taken from patent US20220071996A1.

experiment: solubility of branaplam in selected excipients; format: physicochemical; details: glycerol 25.0% (w/v) aqueous solution in pH 4.0 buffer, 25 °C, pH 4, aqueous with cosolvent or surfactant or cyclodextrin, thermodynamic from solid, in Glycerol 25.0% (w/v), pH 4.0 buffer, RT; read-out: Solubility (mg/mL) RT
REPORTED METRIC: solubility at 24 h (mg/mL)
Quick reminder: number only, in mg/mL, skip the unit.

The reported value for CC1(C)CC(Oc2ccc(-c3ccc(-c4cn[nH]c4)cc3O)nn2)CC(C)(C)N1 in terms of solubility at 24 h is 0.38

###

Assay: solubility of branaplam in selected excipients
Format: physicochemical
Details: aqueous excipient stock solution, 25 °C, pH 4, aqueous with cosolvent or surfactant or cyclodextrin, thermodynamic from solid, in PEG 300 5.0% (w/v), pH 4.0 buffer, RT; read-out: Solubility (mg/mL) RT
Experimental: Solubility of branaplam was evaluated in excipients, other than cyclodextrin, such as Cremophor RH40, Tween 80, PG, PEG300, and glycerol. These excipients and concentrations were selected as they are suitable for paediatric formulations. […] Solubility of branaplam was evaluated in excipients, other than cyclodextrin, such as Cremophor RH40, Tween 80, PG, PEG300, and glycerol. […]
REPORTED METRIC: solubility at 24 h (mg/mL)
Quick reminder: number only, in mg/mL, skip the unit.

The reported value for CC1(C)CC(Oc2ccc(-c3ccc(-c4cn[nH]c4)cc3O)nn2)CC(C)(C)N1 [branaplam] in terms of solubility at 24 h is 0.39

###

assay: solubility of branaplam in selected excipients; format: physicochemical; conditions: aqueous excipient solution, 25 °C, pH 4, aqueous with cosolvent or surfactant or cyclodextrin, thermodynamic from solid, in Propylene glycol 25.0% (w/w), RT; read-out: Solubility (mg/mL) RT
REPORTED METRIC: solubility at 24 h (mg/mL)
Quick reminder: number only, in mg/mL, skip the unit.

The reported value for CC1(C)CC(Oc2ccc(-c3ccc(-c4cn[nH]c4)cc3O)nn2)CC(C)(C)N1 in terms of solubility at 24 h is 0.94

###

assay: solubility of branaplam in selected excipients; format: physicochemical; details: aqueous excipient stock solution, 2 °C, pH 4, aqueous with cosolvent or surfactant or cyclodextrin, thermodynamic from solid, in PEG 400 5.0% (w/v), pH 4.0 buffer, 2-8° C.; read-out: Solubility (mg/mL) 2-8° C.
REPORTED METRIC: solubility at 24 h (mg/mL)
Quick reminder: number only, in mg/mL, skip the unit.

The reported value for CC1(C)CC(Oc2ccc(-c3ccc(-c4cn[nH]c4)cc3O)nn2)CC(C)(C)N1 in terms of solubility at 24 h is 0.21

###

assay: solubility of branaplam in selected excipients; type: physicochemical; conditions: aqueous excipient stock solution, 25 °C, pH 4, aqueous with cosolvent or surfactant or cyclodextrin, thermodynamic from solid, in Propylene glycol 10.0% (w/v), pH 4.0 buffer, RT; read-out: Solubility (mg/mL) RT
REPORTED METRIC: solubility at 24 h (mg/mL)
Quick reminder: number only, in mg/mL, skip the unit.

The reported value for CC1(C)CC(Oc2ccc(-c3ccc(-c4cn[nH]c4)cc3O)nn2)CC(C)(C)N1 in terms of solubility at 24 h is 0.37

###

assay: solubility of branaplam in selected excipients; assay type: physicochemical; conditions: aqueous excipient stock solution, 2 °C, pH 4, aqueous with cosolvent or surfactant or cyclodextrin, thermodynamic from solid, in Cremophor RH 40 7.0% (w/w), 2-8° C.; read-out: Solubility (mg/mL) 2-8° C.
REPORTED METRIC: solubility at 24 h (mg/mL)
Quick reminder: number only, in mg/mL, skip the unit.

The reported value for CC1(C)CC(Oc2ccc(-c3ccc(-c4cn[nH]c4)cc3O)nn2)CC(C)(C)N1 in terms of solubility at 24 h is 0.71
